Source listed as patent US20240150377A1.

This section presents compounds with their documented EC50 values.
Target: CFTR (Homo sapiens, UniProt P13569)
Sequence (P13569 with tags, fused parts or gaps DEL508-508): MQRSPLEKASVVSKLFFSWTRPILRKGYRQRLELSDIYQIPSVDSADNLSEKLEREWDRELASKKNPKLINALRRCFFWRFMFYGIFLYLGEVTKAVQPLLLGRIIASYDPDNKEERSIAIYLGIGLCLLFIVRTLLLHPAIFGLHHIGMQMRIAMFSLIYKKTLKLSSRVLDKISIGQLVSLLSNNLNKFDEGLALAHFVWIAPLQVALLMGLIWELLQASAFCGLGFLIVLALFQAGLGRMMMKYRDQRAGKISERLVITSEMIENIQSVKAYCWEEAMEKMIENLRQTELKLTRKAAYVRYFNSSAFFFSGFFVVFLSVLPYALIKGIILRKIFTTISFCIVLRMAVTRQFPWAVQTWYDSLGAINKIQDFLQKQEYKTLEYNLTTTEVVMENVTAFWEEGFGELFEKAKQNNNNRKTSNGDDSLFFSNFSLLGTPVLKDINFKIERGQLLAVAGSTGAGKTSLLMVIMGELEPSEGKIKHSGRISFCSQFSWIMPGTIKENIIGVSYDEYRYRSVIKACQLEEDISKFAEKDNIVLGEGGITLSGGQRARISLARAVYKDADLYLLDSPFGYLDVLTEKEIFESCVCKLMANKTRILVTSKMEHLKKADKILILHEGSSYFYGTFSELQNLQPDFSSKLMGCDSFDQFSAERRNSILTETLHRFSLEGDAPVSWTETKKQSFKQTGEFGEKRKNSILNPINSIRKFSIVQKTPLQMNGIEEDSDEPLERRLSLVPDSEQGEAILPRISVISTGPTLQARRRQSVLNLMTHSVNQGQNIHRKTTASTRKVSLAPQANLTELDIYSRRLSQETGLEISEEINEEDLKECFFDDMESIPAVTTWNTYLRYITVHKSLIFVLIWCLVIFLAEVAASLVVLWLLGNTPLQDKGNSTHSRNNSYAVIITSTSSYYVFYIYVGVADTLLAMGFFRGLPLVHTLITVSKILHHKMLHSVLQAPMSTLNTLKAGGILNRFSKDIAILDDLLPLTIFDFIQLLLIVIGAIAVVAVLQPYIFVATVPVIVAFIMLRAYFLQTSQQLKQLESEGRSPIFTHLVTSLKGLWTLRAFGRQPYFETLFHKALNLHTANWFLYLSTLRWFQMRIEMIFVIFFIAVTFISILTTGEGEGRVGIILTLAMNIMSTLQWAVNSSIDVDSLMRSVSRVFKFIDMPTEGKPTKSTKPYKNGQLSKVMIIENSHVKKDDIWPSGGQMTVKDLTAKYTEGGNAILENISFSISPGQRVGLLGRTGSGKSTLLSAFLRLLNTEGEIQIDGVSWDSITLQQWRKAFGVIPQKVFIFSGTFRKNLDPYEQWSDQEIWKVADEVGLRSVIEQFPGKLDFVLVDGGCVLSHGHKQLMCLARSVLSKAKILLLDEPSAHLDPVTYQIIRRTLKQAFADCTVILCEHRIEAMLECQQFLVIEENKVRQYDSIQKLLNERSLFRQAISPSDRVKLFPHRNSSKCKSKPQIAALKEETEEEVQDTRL
Assay: Membrane potential dye, Enteroid Assay A
Type: cell-based
Settings: Table 7; human enteroid cells, 18-24 hours; acute 10 μM forskolin and 300 nM ivacaftor; read-out: Ent. A EC50
Method: Base medium (ADF+++) consisted of Advanced DMEM/Ham's F12, 2 mM Glutamax, 10 mM HEPES, […] penicillin/streptomycin. […] Enteroid cells were incubated with test compound in IEMM for 18-24 hours at 37° C., 95% humidity and 5% CO2. […] Chloride transport was initiated by addition of Chloride Free Dye Stimulation Solution and the fluorescence signal was read for 15 min. […]

Known results for compounds:
COc1ccc(CN2Cc3cccc(c3)S(=O)(=O)Nc3nc(cc(-c4c(C)cccc4C)n3)OC[C@H]2CC(C)C)cc1C(F)(F)F [Compound 1031] = < 1 µM
Cc1cccc(C)c1-c1cc2nc(n1)NS(=O)(=O)c1cccc(c1)C(=O)N(Cc1ccncc1)[C@H](CC(C)C)CO2 [Compound 1106] = 1 to 3 µM
Cc1cccc(C)c1-c1cc2nc(n1)NS(=O)(=O)c1cccc(c1)C(=O)N(Cc1ccc(N3CCCC3)nc1)[C@H](CC(C)C)CO2 [Compound 961] = < 1 µM
Cc1cccc(C)c1-c1cc2nc(n1)NS(=O)(=O)c1cccc(c1)C(=O)N(Cc1ccc(N3CCC(C(F)(F)F)CC3)nc1)[C@H](CC(C)C)CO2 [Compound 969] = < 1 µM
Cc1cccc(C)c1-c1cc2nc(n1)NS(=O)(=O)c1cccc(c1)C(=O)N(CC1CC13CCOCC3)[C@H](CC(C)C)CO2 (stereo partly drawn) [Compound 416] = < 1 µM

// CC[C@H](O)CNc1ccc(CN2C(=O)c3cccc(c3)S(=O)(=O)Nc3nc(cc(-c4c(C)cccc4C)n3)OC[C@H]2CC(C)C)cn1 [Compound 948] : EC50 value = 1 to 3 µM
